Target: human FXR (NR1H4) (Homo sapiens)
Experiment: Human FXR (NR1H4) Assay: Gal4 promoter driven luciferase reporter transactivation in CHO cells (Indigo Bioscience kit IB00601)
Format: cell-based
Conditions: potency range, Human FXR (NR1H4) reporter assay in CHO cells; read-out: EC50
Listed here: items and their measured EC50.

Use the examples below as a reference point.
# molecule, EC50
measured = [
    ("CN(C)S(=O)(=O)NC(=O)c1cccc(NC(=O)N2C3CCC2CC(OCc2c(-c4c(Cl)cccc4Cl)noc2C2CC2)C3)c1 (stereo not shown)", "0.1 to 1 µM"),
    ("CC1(S(=O)(=O)NC(=O)c2ccc(NC(=O)N3C4CCC3CC(OCc3c(-c5c(Cl)cccc5Cl)noc3C3CC3)C4)cc2-c2cncnc2)CC1 (stereo not shown)", "0.01 to 0.1 µM"),
    ("COC(=O)c1ccc(NC(=O)N2C3CCC2CC(OCc2c(-c4c(Cl)cccc4Cl)noc2C2CC2)C3)cc1-c1ccccc1 (stereo not shown)", "< 0.01 µM"),
    ("O=C(Nc1ccc(F)c(F)c1)N1C2CCC1CC(OCc1c(-c3c(Cl)cccc3Cl)noc1C1CC1)C2 (stereo not shown)", "0.01 to 0.1 µM"),
]

The molecule identified as O=C(O)c1ccccc1NC(=O)N1C2CCC1CC(OCc1c(-c3ccccc3OC(F)(F)F)noc1C1CC1)C2 (stereo not shown) registered its EC50 at > 1 µM

The molecule identified as COc1c(NC(=O)N2C3CCC2CC(OCc2c(-c4ccccc4OC(F)(F)F)noc2C2CC2)C3)cccc1C(=O)O (stereo not shown) registered its EC50 at > 1 µM

* * *

Biological target: human FXR (NR1H4) (Homo sapiens)
Assay: Human FXR (NR1H4) Assay: Gal4 promoter driven luciferase reporter transactivation in CHO cells (Indigo Bioscience kit IB00601)
Type: cell-based
Conditions: potency range, Human FXR (NR1H4) reporter assay in CHO cells; read-out: EC50
property name: EC50

Use the examples below as a reference point.
# compound, EC50
measured = [
    ("COC(=O)c1ccc(NC(=O)N2C3CCC2CC(OCc2c(-c4c(Cl)cccc4Cl)noc2C2CC2)C3)cn1 (stereo not drawn) [Example 212]", "< 0.01 µM"),
    ("CCOC(=O)c1ccc2c(c1)N(C(=O)N1C3CCC1CC(OCc1c(-c4ccccc4OC(F)(F)F)noc1C1CC1)C3)CCC2 (stereo not drawn) [Example 595]", "> 1 µM"),
]

The compound identified as O=C(c1cccc(NC(=O)N2C3CCC2CC(OCc2c(-c4c(Cl)cccc4Cl)noc2C2CC2)C3)c1)N1CCOCC1 (stereo not drawn) [Example 214] registered its EC50 at 0.01 to 0.1 µM

* * *

Biological target: human FXR (NR1H4) (Homo sapiens, UniProt Q96RI1)
Sequence (Q96RI1 whole entry, the tested form may be a part): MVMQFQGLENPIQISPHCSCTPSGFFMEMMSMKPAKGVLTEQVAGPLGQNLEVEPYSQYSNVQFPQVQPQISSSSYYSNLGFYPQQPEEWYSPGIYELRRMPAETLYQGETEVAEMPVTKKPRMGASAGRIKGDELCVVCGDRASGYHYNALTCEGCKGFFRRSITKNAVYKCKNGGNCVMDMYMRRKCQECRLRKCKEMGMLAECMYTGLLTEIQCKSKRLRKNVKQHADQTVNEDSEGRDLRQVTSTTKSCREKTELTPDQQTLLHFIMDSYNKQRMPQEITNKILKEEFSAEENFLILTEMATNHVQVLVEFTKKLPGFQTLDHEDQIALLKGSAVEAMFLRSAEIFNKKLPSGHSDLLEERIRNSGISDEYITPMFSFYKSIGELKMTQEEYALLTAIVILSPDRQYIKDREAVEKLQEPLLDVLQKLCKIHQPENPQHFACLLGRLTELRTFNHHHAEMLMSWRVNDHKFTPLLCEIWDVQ
Test: Human FXR (NR1H4) Assay: Gal4 promoter driven luciferase reporter transactivation in CHO cells (Indigo Bioscience kit IB00601)
Assay type: cell-based
Conditions: potency range, Human FXR (NR1H4) reporter assay in CHO cells; read-out: EC50
Description: Human FXR (NR1H4) Assay Determination of a ligand mediated Gal4 promoter driven transactivation to quantify ligand binding mediated activation of FXR. […] The principle application of this reporter assay system is to quantify functional activity of human FXR. […] Luminescence intensity of the reaction is quantified using a plate-reading luminometer, Envision. […] Cells were incubated for additional 22 hours before luciferase activities were measured. […] Read time may be 0.5 second (500 mSec) per well.
pEC50: −log10 of the molar value.
property name: pEC50

Use the examples below as a reference point.
# compound, subject of test, pEC50
rows = [
    ("O=C(O)c1ccc(NC(=O)N2C3CCC2CC(OCc2c(-c4c(Cl)cccc4Cl)noc2C2CC2)C3)cn1 (stereo not shown) [Example 213]", "human FXR (NR1H4) (Homo sapiens, UniProt Q96RI1)", "6.00 to 7.00"),
    ("CCOC(=O)c1ccc(NC(=O)N2C3CCC2CC(OCc2c(-c4ccccc4OC(F)(F)F)noc2C2CC2)C3)cc1 (stereo not shown) [Example 228]", "human FXR (NR1H4) (Homo sapiens, UniProt Q96RI1)", "6.00 to 7.00"),
    ("O=C(O)c1ccc(NC(=O)N2C3CCC2CC(OCc2c(-c4ccccc4C(F)(F)F)noc2C2CC2)C3)cc1-c1ccccc1 (stereo not shown) [Example 815]", "human FXR (NR1H4) (Homo sapiens, UniProt Q96RI1)", "7.00 to 8.00"),
]

Next item in the queue.
The compound identified as COc1ccc(C(=O)O)cc1NC(=O)N1C2CCC1CC(OCc1c(-c3c(Cl)cccc3Cl)noc1C1CC1)C2 (stereo not shown) [Example 725] registered its pEC50 at 6.00 to 7.00
